Study Target: Complement C5 (Homo sapiens) (UniProt P01031+P01031)
Assay Overview: filter
Test Conditions: 2'-F pyrimidines; random pool, likely should be larger
Assay Metric: Kd

Q: Name the reported Kd value associated with the sequence GGGAGGACGAUGCGGNNNNNNNNNNNNNNNNNNNNNNNNNNNNNNCAGACGACUCGCCCGA [random 30N7 2'-F RNA pool]
Result: > 1 nM

---

Study Target: Complement C5 (Homo sapiens) (UniProt P01031+P01031)
Assay Overview: filter
Test Conditions: 2'-F pyrimidines; MgPBS 37C
Assay Metric: pKd
Lab note — pKd values are minus log10 of concentrations in M.

Q: Name the reported pKd value associated with the sequence GGGAGGACGAUGCGGUGUUCAGCAUUCAGNAUCUUCACGUGUCGUCAGACGACUCGCCCGA [G3]
Result: 7.26

---

Study Target: Complement C1q (Homo sapiens?) (UniProt P02745+P02746+P02747)
Sequence (P02745 23-245, chain 1 of 3): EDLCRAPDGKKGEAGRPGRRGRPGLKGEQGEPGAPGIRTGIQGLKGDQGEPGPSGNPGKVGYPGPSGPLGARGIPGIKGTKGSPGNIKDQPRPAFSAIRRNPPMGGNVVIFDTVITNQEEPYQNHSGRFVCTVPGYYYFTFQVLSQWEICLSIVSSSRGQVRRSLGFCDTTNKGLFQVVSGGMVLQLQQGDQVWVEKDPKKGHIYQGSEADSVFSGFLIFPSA
Sequence (P02746 28-253, chain 2 of 3): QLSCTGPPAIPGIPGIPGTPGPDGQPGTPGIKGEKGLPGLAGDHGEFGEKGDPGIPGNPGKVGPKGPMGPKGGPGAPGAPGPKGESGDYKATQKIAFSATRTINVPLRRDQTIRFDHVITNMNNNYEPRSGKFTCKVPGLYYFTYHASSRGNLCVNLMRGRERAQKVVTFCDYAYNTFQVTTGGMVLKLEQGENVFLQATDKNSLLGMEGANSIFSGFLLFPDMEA
Sequence (P02747 29-245, chain 3 of 3): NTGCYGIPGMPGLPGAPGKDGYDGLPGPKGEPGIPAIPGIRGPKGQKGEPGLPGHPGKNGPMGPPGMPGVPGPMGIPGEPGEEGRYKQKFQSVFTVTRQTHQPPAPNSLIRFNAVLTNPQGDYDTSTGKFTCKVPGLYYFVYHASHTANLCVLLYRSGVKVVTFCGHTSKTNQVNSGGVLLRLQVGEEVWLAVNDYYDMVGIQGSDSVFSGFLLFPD
Assay Overview: filter
Test Conditions: 2'-F pyrimidines; MgPBS 37C
Assay Metric: Kd (µM)
Give just the numeric value; µM need not be written.

Q: Name the reported Kd value associated with the sequence GGGAGGACGAUGCGGNNNNNNNNNNNNNNNNNNNNNNNNNNNNNNCAGACGACUCGCCCGA [random 30N7 2'-F RNA pool]
Result: 2.3
